- System Name: IL-3 receptor (human, UniProt P26951 19-378; P32927 17-897)
- Sequence (P26951 19-378, chain 1 of 2): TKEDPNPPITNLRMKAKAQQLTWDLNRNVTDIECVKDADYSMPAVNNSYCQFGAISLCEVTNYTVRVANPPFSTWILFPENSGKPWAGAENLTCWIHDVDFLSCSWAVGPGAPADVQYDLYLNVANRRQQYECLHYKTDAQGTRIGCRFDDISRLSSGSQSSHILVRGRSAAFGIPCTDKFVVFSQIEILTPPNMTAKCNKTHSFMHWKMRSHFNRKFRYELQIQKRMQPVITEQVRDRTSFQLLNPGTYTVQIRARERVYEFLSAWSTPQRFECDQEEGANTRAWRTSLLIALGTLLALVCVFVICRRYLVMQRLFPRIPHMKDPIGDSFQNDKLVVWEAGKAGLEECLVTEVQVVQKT
- Sequence (P32927 17-897, chain 2 of 2): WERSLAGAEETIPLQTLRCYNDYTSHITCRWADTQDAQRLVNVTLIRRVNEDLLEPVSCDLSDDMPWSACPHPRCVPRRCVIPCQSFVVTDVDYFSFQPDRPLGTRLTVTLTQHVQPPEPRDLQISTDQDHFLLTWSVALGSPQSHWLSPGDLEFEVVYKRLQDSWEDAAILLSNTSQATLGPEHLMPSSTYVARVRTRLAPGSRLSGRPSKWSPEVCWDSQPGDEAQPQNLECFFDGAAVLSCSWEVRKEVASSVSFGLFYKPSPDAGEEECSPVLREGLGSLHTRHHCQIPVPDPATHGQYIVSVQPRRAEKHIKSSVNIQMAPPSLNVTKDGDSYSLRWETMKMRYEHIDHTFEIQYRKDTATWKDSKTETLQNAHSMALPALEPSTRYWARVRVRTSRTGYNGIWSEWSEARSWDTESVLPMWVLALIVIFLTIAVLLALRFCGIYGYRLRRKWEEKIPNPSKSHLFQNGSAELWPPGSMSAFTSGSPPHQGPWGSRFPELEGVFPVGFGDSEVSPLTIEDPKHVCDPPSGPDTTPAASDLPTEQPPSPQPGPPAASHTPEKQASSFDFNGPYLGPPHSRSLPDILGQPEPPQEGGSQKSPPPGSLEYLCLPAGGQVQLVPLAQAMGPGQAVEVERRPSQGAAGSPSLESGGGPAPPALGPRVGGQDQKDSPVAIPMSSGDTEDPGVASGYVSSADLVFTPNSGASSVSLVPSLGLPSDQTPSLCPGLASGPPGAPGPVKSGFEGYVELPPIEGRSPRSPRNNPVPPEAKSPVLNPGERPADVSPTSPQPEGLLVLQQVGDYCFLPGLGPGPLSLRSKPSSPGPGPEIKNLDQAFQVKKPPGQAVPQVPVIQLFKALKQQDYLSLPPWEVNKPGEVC
- Protocol: cell-based or functional assay
Each item that follows carries a reported REL. SPEC. BIOLOGICAL ACTIVITY (DNA synthesis of AML193 cells).

As a guide, the following entries are already answered.
Qu. For hIL-3 deletion mutant 811 (deletion 31-49) (ligand, expressed in Bacillus, lacks a leader) APMTQTTPLKTSWVNCSNMIDEIITHLKQPENNLRRPNLEAFNRAVKSLQNASAIESILKNLLPCLPLATAAPTRHPIHIKDGDWNEFRRKLTFYLKTLENAQAQQTTLSLAIF , what is its reported REL. SPEC. BIOLOGICAL ACTIVITY (DNA synthesis of AML193 cells)?
Ans. 0.0048 relative to reference IL-3

Qu. For hIL-3 substitution mutant 1484 (Arg54Arg55→Glu54Asp55) (ligand, also called 54RR → ED; not shown: heterologous N-terminal leader of the E. coli fusion (pGB/IL-336: 12 aa; pGB/IL-339: 15 aa)) APMTQTTPLKTSWVNCSNMIDEIITHLKQPPLPLLDFNNLNGEDQDILMENNLEDPNLEAFNRAVKSLQNASAIESILKNLLPCLPLATAAPTRHPIHIKDGDWNEFRRKLTFYLKTLENAQAQQTTLSLAIF , what is its reported REL. SPEC. BIOLOGICAL ACTIVITY (DNA synthesis of AML193 cells)?
Ans. 8e-05 relative to reference IL-3

Qu. For hIL-3 deletion mutant 821 (deletion 94-102) (ligand, not shown: heterologous N-terminal leader of the E. coli fusion (pGB/IL-336: 12 aa; pGB/IL-339: 15 aa)) APMTQTTPLKTSWVNCSNMIDEIITHLKQPPLPLLDFNNLNGEDQDILMENNLRRPNLEAFNRAVKSLQNASAIESILKNLLPCLPLATAAPTDWNEFRRKLTFYLKTLENAQAQQTTLSLAIF , what is its reported REL. SPEC. BIOLOGICAL ACTIVITY (DNA synthesis of AML193 cells)?
Ans. 1.8e-05 relative to reference IL-3

---
Qu. For hIL-3 substitution mutant 1482 (Asp46→Arg46) (ligand, also called 46D→R; not shown: heterologous N-terminal leader of the E. coli fusion (pGB/IL-336: 12 aa; pGB/IL-339: 15 aa)) APMTQTTPLKTSWVNCSNMIDEIITHLKQPPLPLLDFNNLNGEDQRILMENNLRRPNLEAFNRAVKSLQNASAIESILKNLLPCLPLATAAPTRHPIHIKDGDWNEFRRKLTFYLKTLENAQAQQTTLSLAIF , what is its reported REL. SPEC. BIOLOGICAL ACTIVITY (DNA synthesis of AML193 cells)?
Ans. 0.0075 relative to reference IL-3

Qu. For hIL-3 double deletion mutant 9329 (deletions 1-14/120-130) (ligand, not shown: heterologous N-terminal leader of the E. coli fusion, rebuilt with oligonucleotides 1424/1425) NCSNMIDEIITHLKQPPLPLLDFNNLNGEDQDILMENNLRRPNLEAFNRAVKSLQNASAIESILKNLLPCLPLATAAPTRHPIHIKDGDWNEFRRKLTFYLKTLEAIF , what is its reported REL. SPEC. BIOLOGICAL ACTIVITY (DNA synthesis of AML193 cells)?
Ans. 0.4 relative to reference IL-3
